B1: TPR t1 (parent)
chain: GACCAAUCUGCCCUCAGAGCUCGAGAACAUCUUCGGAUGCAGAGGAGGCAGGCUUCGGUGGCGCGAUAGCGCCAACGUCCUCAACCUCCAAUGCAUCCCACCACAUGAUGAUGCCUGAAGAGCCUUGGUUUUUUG

variants of: B1; assay: polymerase ribozyme fitness, log enrichment relative to wild type (log ratio); higher = more active; in vitro selection for triplet polymerase activity
Measured polymerase ribozyme fitness (log ratio) accompanies every entry in the list below.

Answered cases to consult:
C13A C22A    -5.41
C31G C53A G71U G107C    -1.67
A29U A46U U106A    -2.03
G36C G48A G60C G61C    -3.64
G51U G71A A90G C98G C114A C123U    -6.6

Query :: GET /values?readout=polymerase ribozyme fitness (log ratio)&item= C4A A46C C64U C114A C124A U131G
Result :: -3.27

Query :: Which value of polymerase ribozyme fitness (log ratio) has been reported for A2C C72A G120U in the records?
Result :: -1.37

Query :: Need polymerase ribozyme fitness (log ratio) of C12U A18C A29G C82U U92A , thanks.
Result :: -3.51

Query :: Tell me the measured polymerase ribozyme fitness (log ratio) of U14C G44A A46U A75G A95U , please.
Result :: -3.28

Query :: GET /values?readout=polymerase ribozyme fitness (log ratio)&item= A41G A95G C114U
Result :: -2.64

Query :: Form field: reported polymerase ribozyme fitness (log ratio) of C8G U14G G36U C62U C80U G120A
Result :: 0.635

All figures here come from the RNAGym collection of RNA variant scans (doi:10.1073/pnas.2313332121).
